measurement.target: LXRa:RXRa (Homo sapiens, UniProt Q13133;P19793 full;full)
Sequence (Q13133 whole entry, chain 1 of 2): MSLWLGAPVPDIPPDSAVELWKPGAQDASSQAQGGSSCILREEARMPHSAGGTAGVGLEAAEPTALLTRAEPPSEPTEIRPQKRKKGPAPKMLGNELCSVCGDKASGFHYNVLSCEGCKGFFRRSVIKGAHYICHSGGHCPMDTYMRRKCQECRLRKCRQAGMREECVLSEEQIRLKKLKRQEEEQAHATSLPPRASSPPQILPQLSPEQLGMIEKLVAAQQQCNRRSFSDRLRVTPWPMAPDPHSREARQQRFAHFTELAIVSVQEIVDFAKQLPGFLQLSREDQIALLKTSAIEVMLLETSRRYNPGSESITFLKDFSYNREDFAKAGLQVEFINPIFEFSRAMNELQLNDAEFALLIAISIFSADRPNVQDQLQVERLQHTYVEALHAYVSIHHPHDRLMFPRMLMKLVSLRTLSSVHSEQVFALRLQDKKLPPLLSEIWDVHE
Sequence (P19793 whole entry, chain 2 of 2): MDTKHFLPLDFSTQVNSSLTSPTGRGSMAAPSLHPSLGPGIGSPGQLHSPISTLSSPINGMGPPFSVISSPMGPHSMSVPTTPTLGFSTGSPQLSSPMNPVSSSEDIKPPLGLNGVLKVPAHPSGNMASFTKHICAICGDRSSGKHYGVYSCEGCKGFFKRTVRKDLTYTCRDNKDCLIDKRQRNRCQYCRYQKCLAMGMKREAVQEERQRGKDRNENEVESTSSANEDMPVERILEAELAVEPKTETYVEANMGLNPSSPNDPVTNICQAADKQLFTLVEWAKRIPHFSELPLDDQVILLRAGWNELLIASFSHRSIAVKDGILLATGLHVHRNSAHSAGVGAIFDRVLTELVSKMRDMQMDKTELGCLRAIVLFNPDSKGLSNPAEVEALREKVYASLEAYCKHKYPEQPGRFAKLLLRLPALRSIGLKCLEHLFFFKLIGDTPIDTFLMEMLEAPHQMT
run.description: no ligand; PBM; 270 nM : 90 nM RXRa; PBS pH 7.4, 2% milk, 0.02% Triton X-100, 1 mM DTT, BSA, 0.4 mg/ml salmon testes DNA
cond: tags: His kept;His cleaved; copies: 1;1; label: surface-attached array probe
attribute.measured: binding signal

Ask | Return reported binding signal; argument: NRC3_wobSeed102_DR4_G19A_o1 (dsDNA) DNA 1: GCCCTAGCAGGCCAATCTAGGTCACTCAAGGCTTGAGCGATTGACAGCGTAGAATGAAGG DNA 2: CCTTCATTCTACGCTGTCAATCGCTCAAGCCTTGAGTGACCTAGATTGGCCTGCTAGGGC
Reply | 3 PBM z-score against 500 random probes

Hello, the source for this data is paper PMC6555819, in case you need it.
